Origin of the recorded values: PubChem BioAssay (NCI)

# Test system: COLO 205 colon
# assay_details: NCI tumour cell line growth inhibition, 384-well format; in the data active = GI50 below about 0.43 µM; inactive = the rest
Outcome codes: active, inactive

[[record]]
chemical_smiles = "CCCCCCCCCCCCCCCCCCOP(=O)([O-])OC1CC[N+](C)(C)CC1"
group_label = "inactive"

[[record]]
chemical_smiles = "CC(C)(O)c1coc(S(=O)(=O)/N=C(\\O)Nc2c3c(cc4c2CCC4)CCC3)c1"
group_label = "inactive"

[[record]]
chemical_smiles = "Cc1cc(C)c(CNC(=O)c2cc(-c3ccc(CN4CCOCC4)cc3)cc3c2cnn3C2CCCC2)c(=O)[nH]1"
group_label = "inactive"

[[record]]
chemical_smiles = "Cc1c(NC(=O)c2cc(C(N)=O)nc3cc(F)ccc23)c(C(F)(F)F)nn1Cc1ccc(C#N)cc1"
group_label = "active"


###

# Tested on: OVCAR-5 ovarian
# assay_details: NCI tumour cell line growth inhibition, 384-well format
test_readout: GI50

[[record]]
chemical_smiles = "Cc1c(NC(=O)c2cc(C(N)=O)nc3cc(F)ccc23)c(C(F)(F)F)nn1Cc1ccc(C#N)cc1"
target_entity = "OVCAR-5 ovarian"
value = "2.81 µM"

[[record]]
chemical_smiles = "CCc1c2c(nc3ccc(O)cc13)-c1cc3c(c(=O)n1C2)COC(=O)[C@]3(O)CC"
target_entity = "OVCAR-5 ovarian"
value = "0.0398 µM"

[[record]]
chemical_smiles = "Cc1cc(C)c(CNC(=O)c2cc(-c3ccc(CN4CCOCC4)cc3)cc3c2cnn3C2CCCC2)c(=O)[nH]1"
target_entity = "OVCAR-5 ovarian"
value = "13.1 µM"

[[record]]
chemical_smiles = "CCCCCCCCCCCCCCCCCCOP(=O)([O-])OC1CC[N+](C)(C)CC1"
target_entity = "OVCAR-5 ovarian"
value = "6.35 µM"


###

# Test system: OVCAR-4 ovarian
# assay_details: NCI tumour cell line growth inhibition, 384-well format; in the data active means GI50 below about 0.43 µM; inactive means the rest
Outcome codes: Yes (active), No (inactive)

[[record]]
chemical_smiles = "Cc1cc(C)c(CNC(=O)c2cc(-c3ccc(CN4CCOCC4)cc3)cc3c2cnn3C2CCCC2)c(=O)[nH]1"
group_label = "No"

[[record]]
chemical_smiles = "CC(C)(O)c1coc(S(=O)(=O)/N=C(\\O)Nc2c3c(cc4c2CCC4)CCC3)c1"
group_label = "No"

[[record]]
chemical_smiles = "CCCCCCCCCCCCCCCCCCOP(=O)([O-])OC1CC[N+](C)(C)CC1"
group_label = "No"

[[record]]
chemical_smiles = "Cc1c(NC(=O)c2cc(C(N)=O)nc3cc(F)ccc23)c(C(F)(F)F)nn1Cc1ccc(C#N)cc1"
group_label = "Yes"


###

# System: UO-31 renal
# assay_details: NCI tumour cell line growth inhibition, 384-well format
// reported TGI per item
test_readout: TGI (nM)

[[record]]
chemical_smiles = "CC(C)(O)c1coc(S(=O)(=O)/N=C(\\O)Nc2c3c(cc4c2CCC4)CCC3)c1"
target_entity = "UO-31 renal"
relation_qualifier = ">"
value = 100000

[[record]]
chemical_smiles = "Cc1c(NC(=O)c2cc(C(N)=O)nc3cc(F)ccc23)c(C(F)(F)F)nn1Cc1ccc(C#N)cc1"
target_entity = "UO-31 renal"
relation_qualifier = "="
value = 9830

[[record]]
chemical_smiles = "CCc1c2c(nc3ccc(O)cc13)-c1cc3c(c(=O)n1C2)COC(=O)[C@]3(O)CC"
target_entity = "UO-31 renal"
relation_qualifier = "="
value = 49.5

[[record]]
chemical_smiles = "COc1c(OCCCN2CCOCC2)ccc2c3n(c(=NC(=O)c4cnc(N)nc4)nc12)CCN3"
target_entity = "UO-31 renal"
relation_qualifier = "="
value = 258

